- assay.overview: Selectivity index, ratio of CC50 for human MT4 cells to EC50 for HIV1 NL4.3 infected in human MT4 cells
- Assay type: toxicity, cell-based
- assay.conditions: read-out: Ratio CC50/EC50
Kindly state selectivity ratio for each of the entries shown.

Query: Report selectivity ratio for O=C(CCOCC(COCCC(=O)NC(Cc1c(-c2cccc(C(=O)O)c2)[nH]c2ccccc12)C(=O)O)(COCCC(=O)NC(Cc1c(-c2cccc(C(=O)O)c2)[nH]c2ccccc12)C(=O)O)COCCC(=O)NC(Cc1c(-c2cccc(C(=O)O)c2)[nH]c2ccccc12)C(=O)O)NC(Cc1c(-c2cccc(C(=O)O)c2)[nH]c2ccccc12)C(=O)O (stereo not drawn) please.
Result: > 50

Query: Report selectivity ratio for O=C(CCC(CCC(=O)NC(Cc1c(-c2cccc(C(=O)O)c2)[nH]c2ccccc12)C(=O)O)(CCC(=O)NC(Cc1c(-c2cccc(C(=O)O)c2)[nH]c2ccccc12)C(=O)O)[N+](=O)[O-])NC(Cc1c(-c2cccc(C(=O)O)c2)[nH]c2ccccc12)C(=O)O (stereo not drawn) please.
Result: > 6

Query: Report selectivity ratio for O=C(CCC(CCC(=O)NC(Cc1cn(Cc2ccc(F)cc2)c2ccccc12)C(=O)O)(CCC(=O)NC(Cc1cn(Cc2ccc(F)cc2)c2ccccc12)C(=O)O)[N+](=O)[O-])NC(Cc1cn(Cc2ccc(F)cc2)c2ccccc12)C(=O)O (stereo not drawn) please.
Result: > 2.3

Query: Report selectivity ratio for O=C(CCC(CCC(=O)NC(Cc1c(-c2ccccc2)[nH]c2ccccc12)C(=O)O)(CCC(=O)NC(Cc1c(-c2ccccc2)[nH]c2ccccc12)C(=O)O)[N+](=O)[O-])NC(Cc1c(-c2ccccc2)[nH]c2ccccc12)C(=O)O (stereo not drawn) please.
Result: 4.4

Query: Report selectivity ratio for O=C(CCC(CCC(=O)NC(Cc1c(-c2ccc(C(F)(F)F)cc2)[nH]c2ccccc12)C(=O)O)(CCC(=O)NC(Cc1c(-c2ccc(C(F)(F)F)cc2)[nH]c2ccccc12)C(=O)O)[N+](=O)[O-])NC(Cc1c(-c2ccc(C(F)(F)F)cc2)[nH]c2ccccc12)C(=O)O (stereo not drawn) please.
Result: > 4

Query: Report selectivity ratio for O=C(CCC(CCC(=O)NC(Cc1cn(Cc2ccccc2)c2ccccc12)C(=O)O)(CCC(=O)NC(Cc1cn(Cc2ccccc2)c2ccccc12)C(=O)O)[N+](=O)[O-])NC(Cc1cn(Cc2ccccc2)c2ccccc12)C(=O)O (stereo not drawn) please.
Result: > 2

Query: Report selectivity ratio for O=C(CCC(CCC(=O)NC(Cc1c(-c2ccc([N+](=O)[O-])cc2)[nH]c2ccccc12)C(=O)O)(CCC(=O)NC(Cc1c(-c2ccc([N+](=O)[O-])cc2)[nH]c2ccccc12)C(=O)O)[N+](=O)[O-])NC(Cc1c(-c2ccc([N+](=O)[O-])cc2)[nH]c2ccccc12)C(=O)O (stereo not drawn) please.
Result: > 2

Query: Report selectivity ratio for O=C(CCC(CCC(=O)NC(Cc1c(-c2cc(C(=O)O)cc(C(=O)O)c2)[nH]c2ccccc12)C(=O)O)(CCC(=O)NC(Cc1c(-c2cc(C(=O)O)cc(C(=O)O)c2)[nH]c2ccccc12)C(=O)O)[N+](=O)[O-])NC(Cc1c(-c2cc(C(=O)O)cc(C(=O)O)c2)[nH]c2ccccc12)C(=O)O (stereo not drawn) please.
Result: > 370

Query: Report selectivity ratio for O=C(CCC(CCC(=O)NC(Cc1cn(Cc2ccc(C(=O)O)cc2)c2ccccc12)C(=O)O)(CCC(=O)NC(Cc1cn(Cc2ccc(C(=O)O)cc2)c2ccccc12)C(=O)O)[N+](=O)[O-])NC(Cc1cn(Cc2ccc(C(=O)O)cc2)c2ccccc12)C(=O)O (stereo not drawn) please.
Result: > 2.4

Query: Report selectivity ratio for CN[C@@H]1[C@H](O[C@@H]2OC[C@@H](O)[C@H](O)[C@H]2O)[C@@H](O)[C@H](O[C@H]2c3cc(C)c(C(=O)N[C@H](C)C(=O)O)c(O)c3-c3c(cc4c(c3O)C(=O)c3cc(OC)cc(O)c3C4=O)[C@@H]2O)O[C@@H]1C please.
Result: > 30.3

Query: Report selectivity ratio for O=C(CCC(CCC(=O)NC(Cc1c(-c2ccc(C(=O)O)cc2)[nH]c2ccccc12)C(=O)O)(CCC(=O)NC(Cc1c(-c2ccc(C(=O)O)cc2)[nH]c2ccccc12)C(=O)O)[N+](=O)[O-])NC(Cc1c(-c2ccc(C(=O)O)cc2)[nH]c2ccccc12)C(=O)O (stereo not drawn) please.
Result: 29.6

Query: Report selectivity ratio for O=C(CCC(CCC(=O)NC(Cc1c(-c2ccccc2F)[nH]c2ccccc12)C(=O)O)(CCC(=O)NC(Cc1c(-c2ccccc2F)[nH]c2ccccc12)C(=O)O)[N+](=O)[O-])NC(Cc1c(-c2ccccc2F)[nH]c2ccccc12)C(=O)O (stereo not drawn) please.
Result: > 3

Query: Report selectivity ratio for O=C(CCOCC(COCCC(=O)NC(Cc1c(-c2ccc(C(=O)O)cc2)[nH]c2ccccc12)C(=O)O)(COCCC(=O)NC(Cc1c(-c2ccc(C(=O)O)cc2)[nH]c2ccccc12)C(=O)O)COCCC(=O)NC(Cc1c(-c2ccc(C(=O)O)cc2)[nH]c2ccccc12)C(=O)O)NC(Cc1c(-c2ccc(C(=O)O)cc2)[nH]c2ccccc12)C(=O)O (stereo not drawn) please.
Result: > 137

----------
- System: Enterovirus A71
- assay.overview: Antiviral activity against Enterovirus A 71 BrCr infected in human RD cells assessed as reduction in virus-induced cytopathic effect preincubated for 1 day followed by viral infection and measured after 3 days by MTS/PMS method
- Assay type: functional, organism-based
- assay.conditions: strain BRCR
measure.name: EC50

Query: Report EC50 for O=C(CCOCC(COCCC(=O)NC(Cc1c(-c2cc(C(=O)O)cc(C(=O)O)c2)[nH]c2ccccc12)C(=O)O)(COCCC(=O)NC(Cc1c(-c2cc(C(=O)O)cc(C(=O)O)c2)[nH]c2ccccc12)C(=O)O)COCCC(=O)NC(Cc1c(-c2cc(C(=O)O)cc(C(=O)O)c2)[nH]c2ccccc12)C(=O)O)NC(Cc1c(-c2cc(C(=O)O)cc(C(=O)O)c2)[nH]c2ccccc12)C(=O)O (configuration not stated) please.
Result: 0.04 to 0.109 µM

Query: Report EC50 for O=C(CCOCC(COCCC(=O)NC(Cc1c[nH]c2ccccc12)C(=O)O)(COCCC(=O)NC(Cc1c[nH]c2ccccc12)C(=O)O)COCCC(=O)NC(Cc1c[nH]c2ccccc12)C(=O)O)NC(Cc1c[nH]c2ccccc12)C(=O)O (configuration not stated) please.
Result: > 100 µM

Query: Report EC50 for O=C(CCC(CCC(=O)NC(Cc1c(-c2ccccc2F)[nH]c2ccccc12)C(=O)O)(CCC(=O)NC(Cc1c(-c2ccccc2F)[nH]c2ccccc12)C(=O)O)[N+](=O)[O-])NC(Cc1c(-c2ccccc2F)[nH]c2ccccc12)C(=O)O (configuration not stated) please.
Result: > 89.4 µM

Query: Report EC50 for COc1ccc(-c2[nH]c3ccccc3c2CC(NC(=O)CCC(CCC(=O)NC(Cc2c(-c3ccc(OC)cc3)[nH]c3ccccc23)C(=O)O)(CCC(=O)NC(Cc2c(-c3ccc(OC)cc3)[nH]c3ccccc23)C(=O)O)[N+](=O)[O-])C(=O)O)cc1 (configuration not stated) please.
Result: > 86.6 µM

Query: Report EC50 for O=C(CCC(CCC(=O)NC(Cc1c[nH]c2ccccc12)C(=O)O)(CCC(=O)NC(Cc1c[nH]c2ccccc12)C(=O)O)[N+](=O)[O-])NC(Cc1c[nH]c2ccccc12)C(=O)O (configuration not stated) please.
Result: > 120 µM

Query: Report EC50 for O=C(CCOCC(COCCC(=O)NC(Cc1cn(Cc2ccc(C(=O)O)cc2)c2ccccc12)C(=O)O)(COCCC(=O)NC(Cc1cn(Cc2ccc(C(=O)O)cc2)c2ccccc12)C(=O)O)COCCC(=O)NC(Cc1cn(Cc2ccc(C(=O)O)cc2)c2ccccc12)C(=O)O)NC(Cc1cn(Cc2ccc(C(=O)O)cc2)c2ccccc12)C(=O)O (configuration not stated) please.
Result: > 19.5 µM

Query: Report EC50 for O=C(CCC(CCC(=O)NC(Cc1c(-c2ccccc2)[nH]c2ccccc12)C(=O)O)(CCC(=O)NC(Cc1c(-c2ccccc2)[nH]c2ccccc12)C(=O)O)[N+](=O)[O-])NC(Cc1c(-c2ccccc2)[nH]c2ccccc12)C(=O)O (configuration not stated) please.
Result: > 100 µM
